# Tested on: H1581 (FGFR1 amp)
# assay_procedure: In vitro growth inhibition of H1581 tumor cells (MTT/CCK8)
# Type: cell-based, Human
# details: Homo sapiens, NCI-H1581; in vitro growth inhibition (or induction of apoptosis), cells cultured 3 to 5 days, MTT (CCK8); read-out: IC50 H1581 (FGFR1 amp)
property: pIC50
Reminder that pIC50 means the negative base-10 logarithm of the concentration expressed in mol/L.

Entry COc1cc2nccc(Oc3ccc(NC(=O)Nc4cc(C(C)(C)C)on4)cc3Cl)c2cc1C(N)=O [Compound 8] ; pIC50 = 7.71

Short answer for COc1cc2nccc(Oc3ccc(NC(=O)Nc4cc(C(C)(C)C)on4)c(C(F)(F)F)c3)c2cc1C(N)=O [Compound 4] : pIC50 was 7.88

Recorded result, COCCOc1cc2nccc(Oc3ccc(NC(=O)Nc4cc(C(C)(C)C)n[nH]4)c(Cl)c3)c2cc1NC(C)=O [Compound 66] , pIC50: 8.69

====

# Test system: H1703 (PDGFRa amp)
# assay_procedure: In vitro growth inhibition of H1703 tumor cells (MTT/CCK8)
# Type: cell-based, Human
# details: Homo sapiens, NCI-H1703; in vitro growth inhibition (or induction of apoptosis), cells cultured 3 to 5 days, MTT (CCK8); read-out: IC50 H1703 (PDGFRa amp)
What pIC50 was measured for each of the following?
The meaning of pIC50 here: minus log10 of the concentration in molar units.

Please fill in: pIC50 reported for `CCC(=O)n1nc(C(C)(C)C)cc1NC(=O)Nc1ccc(Oc2ccnc3cc(OC)c(C(N)=O)cc23)cc1Cl` = 7.74

Data point: `COc1cc2nccc(Oc3ccc(NC(=O)Nc4cc(C(C)(C)C)n[nH]4)cn3)c2cc1NC(C)=O` ; pIC50 = 6.79

Entry `COc1cc2nccc(Oc3ccc(NC(=O)Nc4cc(C(C)(C)C)on4)c(Cl)c3)c2cc1[N+](=O)[O-]` ; pIC50 = 7.17

Record `COc1cc2nccc(Oc3ccc(NC(=O)Nc4cc(C(C)(C)C)on4)c(Cl)c3)c2cc1C#N` . Reported pIC50: 6.77

Looking up `COc1cc2nccc(Oc3ccc(NC(=O)Nc4cc(C(C)(C)C)n[nH]4)c(Cl)c3)c2cc1NC(=O)C1CCCC1` , I see its pIC50 listed as 6.61

The measured pIC50 associated with `CNC(=O)c1cc2c(Oc3ccc(NC(=O)Nc4cc(C(C)(C)C)n[nH]4)c(Cl)c3Cl)ccnc2cc1OC` reads 7.72

Recorded result, `CC(C)(C)c1cc(NC(=O)Nc2ccc(Oc3ccnc4cc(OCCN5CCOCC5)c(C(N)=O)cc34)c(Cl)c2Cl)[nH]n1` , pIC50: 8.30

Sure, the documented pIC50 for `CNC(=O)c1cc2c(Oc3ccc(NC(=O)Nc4cc(C(C)(C)C)nn4C)c(C)c3)ccnc2cc1OC` is 7.84

// `CC(C)CN1CCN(CCCOc2cc3nccc(Oc4ccc(NC(=O)Nc5cc(C(C)(C)C)n[nH]5)c(Cl)c4)c3cc2C(N)=O)CC1` : pIC50 value = 7.88

====

Consider the following compounds; for each one, report its IC50.
# Test system: Kasumi-1 (KIT N822K)
# assay_procedure: In vitro growth inhibition of Kasumi-1 tumor cells (MTT/CCK8)
# Format: cell-based, Human
# details: Homo sapiens, Kasumi 1; in vitro growth inhibition (or induction of apoptosis), cells cultured 3 to 5 days, MTT (CCK8); read-out: IC50 Kasumi-1 (KIT N822K)

response.value for `COc1cc2nccc(Oc3ccc(NC(=O)Nc4cc(C(C)(C)C)on4)cc3F)c2cc1C(N)=O` (field: IC50) = 144 nM

Entry `CC(C)(C)c1cc(NC(=O)Nc2ccc(Oc3ccnc4c(C(F)(F)F)cccc34)cc2Cl)no1` ; IC50 = > 1000 nM

Lab book: IC50 of C=CC(=O)N1CCC(NC(=O)Nc2ccc(Oc3ccnc4cc(OC)c(C(N)=O)cc34)cc2Cl)C1 (stereo not drawn) noted as > 1000 nM

====

# Test system: H1581 (FGFR1 amp)
# assay_procedure: In vitro growth inhibition of H1581 tumor cells (MTT/CCK8)
# Format: cell-based, Human
# details: Homo sapiens, NCI-H1581; in vitro growth inhibition (or induction of apoptosis), cells cultured 3 to 5 days, MTT (CCK8); read-out: IC50 H1581 (FGFR1 amp)
pIC50: −log10 of the molar value.
Assign TRUE whenever pIC50 does not fall below 8; assign FALSE whenever it does.

Query :: Quick check, pIC50 >= 8? CCC(=O)N1CCC(NC(=O)Nc2ccc(Oc3ccnc4cc(OC)c(C(N)=O)cc34)cc2Cl)C1 (centres unmarked) [Compound 69]
Result :: FALSE

Query :: Hi team, for COc1cc2nccc(Oc3ccc(NC(=O)Nc4cc(C(C)(C)C)n[nH]4)c(C)c3C)c2cc1C(N)=O [Compound 109] , is the recorded pIC50 at or above 8?
Result :: FALSE

Query :: Could you verify whether the entry COCCOc1cc2nccc(Oc3ccc(NC(=O)Nc4cc(C(C)(C)C)n[nH]4)c(F)c3)c2cc1NC(C)=O [Compound 128] shows pIC50 of no less than 8?
Result :: TRUE

Query :: Entry CC(C)(C)c1cc(NC(=O)Nc2ccc(Oc3ccnc4c(F)cccc34)cc2Cl)no1 [Compound 113] : is its pIC50 no less than 8?
Result :: FALSE

Query :: Given COCCOc1cc2nccc(Oc3ccc(NC(=O)Nc4cc(C(C)(C)C)nn4C4CC4)c(Cl)c3)c2cc1NC(C)=O [Compound 125] , state whether its pIC50 is at least 8.
Result :: TRUE

Query :: pIC50 >= 8 for COc1cc2nccc(Oc3ccc(NC(=O)Nc4cc(C(C)(C)C)n[nH]4)c(Cl)c3C)c2cc1C(N)=O [Compound 112] ?
Result :: TRUE

Query :: Is pIC50 for COc1cc2nccc(Oc3ccc(NC(=O)Nc4cc(C(C)(C)C)on4)cc3Br)c2cc1C(N)=O [Compound 7] at or above 8?
Result :: FALSE

Query :: Entry COc1cc2nccc(Oc3ccc(NC(=O)Nc4cc(C(C)(C)C)on4)c(N4CCN(C)CC4)c3)c2cc1C(N)=O [Compound 10] : is its pIC50 no less than 8?
Result :: FALSE

Query :: Dear colleague, could you confirm whether COc1cc2nccc(Oc3ccc(NC(=O)Nc4cc(C(C)(C)C)n[nH]4)cc3C(C)C)c2cc1C(N)=O [Compound 107] has pIC50 at or above 8?
Result :: FALSE

Query :: In plain terms: is recorded pIC50 at least 8 for COc1cc2nccc(Oc3ccc(NC(=O)N(C)c4cc(C(C)(C)C)on4)c(Cl)c3)c2cc1C(N)=O [Compound 12] ?
Result :: FALSE

Query :: Is reported pIC50 greater than or equal to 8 here: COc1cc2nccc(Oc3ccc(NC(=O)Nc4cc(C(C)(C)C)on4)c(Cl)c3)c2cc1NC(C)=O [Compound 20]
Result :: TRUE

Query :: Check the entry CC(C)Oc1cc2nccc(Oc3ccc(NC(=O)Nc4cc(C(C)(C)C)n[nH]4)c(Cl)c3)c2cc1C(N)=O [Compound 43] : does pIC50 equal or exceed 8?
Result :: FALSE

Query :: Answer whether pIC50 of CNC(=O)c1cc2c(Oc3ccc(NC(=O)Nc4cc(C(C)(C)C)nn4C)cc3C)ccnc2cc1OC [Compound 53] is greater than or equal to 8.
Result :: FALSE

====

# System: H1703 (PDGFRa amp)
# assay_procedure: In vitro growth inhibition of H1703 tumor cells (MTT/CCK8)
# Type: cell-based, Human
# details: Homo sapiens, NCI-H1703; in vitro growth inhibition (or induction of apoptosis), cells cultured 3 to 5 days, MTT (CCK8); read-out: IC50 H1703 (PDGFRa amp)
pIC50: −log10 of the molar value.
property: pIC50

Given item CCN1CCN(c2ccc(Nc3cc(NC(=O)Nc4ccc(Oc5ccnc6cc(OC)c(C(N)=O)cc56)c(Cl)c4Cl)ncn3)cc2)CC1 [Compound 71] , the value recorded as its pIC50 is < 6.00

Entry COc1cc2nc(Cl)cc(Oc3ccc(NC(=O)Nc4cc(C(C)(C)C)nn4C)c(Cl)c3)c2cc1C(N)=O [Compound 39] — recorded pIC50 = < 6.00

Query CC(C)(C)c1cc(NC(=O)Nc2ccc(Oc3cc(C(F)(F)F)nc4ccccc34)cc2Cl)no1 [Compound 115] yields pIC50 of < 6.00

Kindly note the recorded pIC50 for CC(C)(C)c1cc(NC(=O)Nc2ccc(-c3cn4c(n3)sc3cc(OCCC5CCOCC5)ccc34)cc2)no1 [AC220, reference compound] , which is < 6.00

====

# Test system: H1581 (FGFR1 amp)
# assay_procedure: In vitro growth inhibition of H1581 tumor cells (MTT/CCK8)
# Assay type: cell-based, Human
# details: Homo sapiens, NCI-H1581; in vitro growth inhibition (or induction of apoptosis), cells cultured 3 to 5 days, MTT (CCK8); read-out: IC50 H1581 (FGFR1 amp)
pIC50: −log10 of the molar value.
Kind request: treat 7 as inclusive, so pIC50 at 7 or higher is true, anything lower is false.

Query :: Check if pIC50 >= 7 (inclusive). Item: `COCCOc1cc2nccc(Oc3ccc(NC(=O)Nc4cc(C(C)(C)C)nn4C)cc3)c2cc1NC(C)=O`
Result :: true

Query :: Please indicate if the recorded pIC50 for `COc1cc2nccc(Oc3ccc(NC(=O)Nc4cc(C(C)(C)C)n[nH]4)c(Cl)c3)c2cc1NC(=O)C1CCCC1` meets or exceeds 7.
Result :: false

Query :: Hello, I need to know if `CC(C)(C)c1cc(NC(=O)Nc2ccc(Oc3ccnc4cc(OCCN5CCOCC5)c(C(N)=O)cc34)c(Cl)c2Cl)[nH]n1` has measured pIC50 not below 7. Thanks!
Result :: true

Query :: Kindly determine if pIC50 recorded for `CNC(=O)c1cc2c(Oc3ccc(NC(=O)Nc4cc(C(C)(C)C)n[nH]4)cc3Cl)ccnc2cc1OC` is above or exactly 7.
Result :: true

Query :: Hi, just wondering whether `CNC(=O)c1cc2c(Oc3ccc(NC(=O)Nc4cc(C(C)(C)C)nn4C)c(Cl)c3)ccnc2cc1OCCOC` shows pIC50 of 7 or higher.
Result :: true

Query :: Decide: is the reported value of pIC50 for `CC(=O)Nc1cc2c(Oc3ccc(NC(=O)Nc4cc(C(C)(C)C)n[nH]4)c(Cl)c3)ccnc2cc1OCCO` equal to or greater than 7?
Result :: true

Query :: Given CC(C)(C)c1cc(NC(=O)Nc2ccc(-c3cn4c(n3)sc3cc(OCCC5CCOCC5)ccc34)cc2)no1 [AC220, reference compound] , state whether its pIC50 is at least 7.
Result :: false

Query :: Hi, just wondering whether `COc1cc2nccc(Oc3ccc(NC(=O)Nc4cc(C(C)(C)C)n[nH]4)cc3F)c2cc1NC(C)=O` shows pIC50 of 7 or higher.
Result :: true

Query :: Check if pIC50 >= 7 (inclusive). Item: `COc1cc2nccc(Oc3ccc(NC(=O)Nc4cc(C(C)(C)C)nn4CCO)c(Cl)c3)c2cc1C(N)=O`
Result :: true
